# RUN DESCRIPTION: Aqueous solubility at 25° C.
# Assay type: physicochemical
# RUN CONDITIONS: water
PARAMETER: solubility

compound CC[C@H]1[C@@H](O)C2C3CC[C@H]([C@H](C)CCOS(=O)(=O)[O-])[C@@]3(C)CCC2[C@@]2(C)CC[C@@H](O)C[C@@H]12.[Na+] (stereo partly shown) [Amorphous Compound 1-Na] , solubility observed: > 200 mg/mL
